test system: P. falciparum stage V gametocytes; parameters: BacTiter-Glo ATP luminescence viability of purified stage V gametocytes in 384-well plates, per cent inhibition versus DMSO; conditions: 48 h, 5 µM; inhibitor
Screen size: about 13,000 compounds; about 3,200 (25%) showed an effect of 50% or more. The list shows a part of the results.
RECORDED_METRIC: % Inhibition (%)
Give bare numbers, in %.

compound="CC(C)[C@H]1CC[C@H](C)C[C@@H]1OC(=O)N[C@@H](Cc1ccc(O)cc1)C(=O)NC1CCN(Cc2ccc(OCCCN(C)C)cc2)C1 (stereo partly shown) [TCMDC-140497]" recorded_metric="% Inhibition" experimental_result=106.1

Hi, could you look up % Inhibition for each item in my list?
1. Cc1cc(C(=O)N[C@H]2CCN(Cc3ccc(OCCCN(C)C)cc3)C2)ccc1Br [TCMDC-140368]
2. CC(C)(C)c1ccc(OC(=O)c2ccc(NC(=O)N[C@@H](Cc3ccc(O)cc3)C(=O)NC3CCN(Cc4ccc(O)cc4)C3)cc2)cc1 (stereo partly shown) [TCMDC-135359]
3. CCOC(=O)c1ccc(NC(=O)N[C@@H](Cc2ccccc2)C(=O)NC2CCN(Cc3ccc(O)cc3)C2)cc1 (stereo partly shown) [TCMDC-140502]

Response:
[17.03, 23.01, -28.76]

---

test system: P. falciparum stage V gametocytes; set-up: BacTiter-Glo ATP luminescence viability of purified stage V gametocytes in 384-well plates, per cent inhibition versus DMSO; conditions: 48 h, 5 µM; inhibitor
Among all 13,000 compounds or so, about 3,200 (25%) showed an effect of 50% or more. The list shows a part of the results.
RECORDED_METRIC: % Inhibition (%)
One number for each entry, in %.

Some entries whose results are on file:
compound=COc1ccc(Nc2nc(N3CCCC3)c3ccccc3n2)cc1.Cl experimental_result=-67.29
compound=COc1ccccc1CCCON1C(N)=NC(N)=NC1(C)C experimental_result=17.71
compound=Cc1cccc2[nH]c(-c3cccc(-c4ccc(NC(=O)Cc5ccccn5)cc4)c3)nc12 experimental_result=-17.95
compound=CCNc1cc(C(=O)N[C@@H](Cc2ccccc2)[C@H](O)CNCc2cccc(-n3ccnc3)c2)cc(N2CCCC2=O)c1 experimental_result=34.28
compound=CN(C)CCN(C)C(=O)c1cc(-c2ccncc2)c(-c2ccc(Cl)c(O)c2)o1 experimental_result=-25.23

Hi, could you look up % Inhibition for each item in my list?
1. CC(=NO)C1=C(O)C(c2ccccc2)N(c2ccccc2)C1=O (centres unmarked)
2. Cl.OCCNc1nc(Nc2ccc(F)cc2)nc2ccccc12
3. CC(=O)N1CCC(C(=O)Nc2ccc(-c3cccc(-c4nc5ccc(C(F)(F)F)cc5[nH]4)c3)cc2)CC1
4. O=C1CSc2ccc(CNC3CCN(CCc4c(Cl)cnc5ccc(Cl)cc45)CC3)nc2N1
5. Cl.Oc1ccc(Nc2nc(N3CCCC3)c3ccccc3n2)cc1

Response:
1: 13.72; 2: -1.104; 3: -13.72; 4: 32.4; 5: 79.67

Hi, could you look up % Inhibition for each item in my list?
1. Cl.OCCNc1nc(Nc2ccc(Cl)cc2)nc2ccccc12
2. COc1ccc2nccc(NC(=O)N3CCC(NCCOc4cc(F)cc(F)c4)CC3)c2n1
3. C=C[C@H]1CN2CC[C@H]1C[C@H]2[C@H](OS(=O)(=O)O)c1ccnc2ccccc12
4. COc1ccc(NC(=O)N2CCN(CCCCCNC(=O)/C=C/c3ccc(C(F)(F)F)cc3)CC2)cc1Cl
5. FC(F)(F)c1ccc(NC(=S)N2CCC(CN3CCC(c4c[nH]c5ccccc45)CC3)CC2)cc1
6. Nc1ncc(-c2ccc(F)cc2)c2ccc(-c3cccc(F)c3)cc12
7. Oc1ccc(Nc2nc(NCc3ccco3)c3ccccc3n2)cc1

Response:
1: 1.912; 2: 29.69; 3: 14.93; 4: -39.25; 5: 5.954; 6: -15.75; 7: -74.78
